Below, each entry is listed alongside its reported Plant response rating, Deadnettle.
System: deadnettle (henbit deadnettle, Lamium amplexicaule)
Protocol notes: Test C postemergence: deadnettle
Format: in vivo
Condition details: 31 g ai/ha, scale 0 to 100 (0 no effect, 100 complete control)
Endpoint: Plant response rating, Deadnettle

* Cc1nn(-c2ccc(C(F)(F)F)cc2)nc1Cc1ccnc(C(F)(F)F)c1 [Compound 47] | 95
* Cc1nn(-c2ccc(C(F)(F)F)cc2)nc1Cc1cccc(C(F)(F)F)c1 [Compound 124] | 80
* CCOc1nn(-c2ccc(F)cc2)nc1Cc1ccnc(C(F)F)c1 [Compound 195] | 100
* Cc1nn(-c2ccc(F)c(F)c2)nc1Oc1ccnc(C(F)(F)F)c1 [Compound 145] | 100

====

Test system: pigweed (Amaranthus retroflexus)
Protocol notes: Test A pre-/postemergence: pigweed
Type: in vivo
Condition details: Preemergence, 125 g ai/ha; 0 to 100 scale where 0 is no effect and 100 is complete control
# label = y if Plant response rating, Pigweed >= 90 else n

• CC(C)(C)c1nn(-c2ccc(F)cc2)nc1C(=O)c1ccnc(C(F)(F)F)c1 = n
• COc1nn(-c2ccc(F)cc2F)nc1Cc1ccnc(C(F)(F)F)c1 = y
• Cc1nn(-c2ccc(F)cc2)nc1Oc1cccc(OC(F)(F)F)c1 = n
• COCc1nn(-c2ccc(F)cc2)nc1Oc1ccnc(C(F)(F)F)c1 = y
• Cc1nn(-c2ccc(Br)cc2)nc1C(=O)c1cccc(C(F)(F)F)c1 = n
• CC(C)c1nn(-c2ccc(F)cc2)nc1Cc1cccc(C(F)(F)F)c1 = n
• CC(C)Cc1nn(-c2ccc(C(F)(F)F)cc2)nc1Oc1ccnc(C(F)F)c1 = n
• CCc1nn(-c2ccc(C(F)(F)F)cn2)nc1Cc1cccc(C(F)(F)F)c1 = n
• CCc1nn(-c2cccc(C(F)(F)F)c2)nc1Cc1cccc(C(F)(F)F)c1 = y
• CCc1nn(-c2ccc(F)cc2)nc1Cc1cccc(C(F)(F)F)c1 = n

====

Tested on: pigweed (Amaranthus retroflexus)
Protocol notes: Test A pre-/postemergence: pigweed
Format: in vivo
Condition details: Postemergence, 125 g ai/ha; 0 to 100 scale, 0 is no effect, 100 is complete control
Below, each entry is listed alongside its reported Pigweed plant response rating.
Endpoint: Pigweed plant response rating

• Cc1nn(-c2ccc(Cl)cc2)nc1C(=O)c1cccc(C(F)(F)F)c1 [Compound 42] = 50
• Cc1nn(-c2ccccc2I)nc1C(=O)c1cccc(C(F)(F)F)c1 [Compound 91] = 10
• Cc1nn(-c2cccc(C(F)(F)F)c2)nc1Oc1ccnc(C(F)(F)F)c1 [Compound 40] = 100
• CCc1nn(-c2ccc(C(F)(F)F)cc2)nc1Cn1cc(C(F)(F)F)nc1Cl [Compound 122] = 100
• CSc1ccccc1-n1nc(C)c(C(=O)c2cccc(C(F)(F)F)c2)n1 [Compound 6] = 0
• COc1nn(-c2ccc(F)cc2)nc1Oc1ccnc(C(F)(F)F)c1 [Compound 34] = 80
• Cc1nn(-c2ccccc2)nc1C(=O)c1cccc(C(F)(F)F)c1 [Compound 43] = 50
• Cc1nn(-c2ccc(Cl)cc2)nc1Oc1ccnc(C(F)(F)F)c1 [Compound 52] = 100
• Cc1nn(-c2ccc(C(F)(F)F)cc2)nc1Cc1cnn(CC(F)(F)F)c1 [Compound 51] = 10
• Cc1nn(-c2ccc(F)cc2)nc1Cn1cnc(C(F)(F)F)c1 [Compound 112] = 90

====

Test system: crabgrass, large (large crabgrass, Digitaria sanguinalis)
Protocol notes: Test A pre-/postemergence: crabgrass, large
Assay type: in vivo
Condition details: Postemergence, 125 g ai/ha; 0 to 100 scale, 0 is no effect, 100 is complete control
Below, each entry is listed alongside its reported Crabgrass, Large plant response rating.
Endpoint: Crabgrass, Large plant response rating

- Cc1nn(-c2ccc(F)cc2)nc1Cn1cnc(C(F)(F)F)c1Cl: 0
- Cc1nn(-c2cnc(Cl)cn2)nc1C(=O)c1cccc(C(F)(F)F)c1: 0
- CCc1nn(-c2ccc(F)cc2)nc1Cc1cccc(C(F)(F)F)c1: 50
- Cc1nn(-c2ccc(Br)cc2)nc1C(=O)c1cccc(C(F)(F)F)c1: 10
- Cc1nn(-c2ccccc2Cl)nc1C(=O)c1cccc(C(F)(F)F)c1: 0

====

Test system: ryegrass, Italian (Italian ryegrass, Lolium multiflorum)
Protocol notes: Test C pre-/postemergence: ryegrass, Italian
Assay type: in vivo
Condition details: Postemergence, 250 g ai/ha; scale 0 to 100
Below, each entry is listed alongside its reported Plant response rating, Ryegrass, Italian.
Endpoint: Plant response rating, Ryegrass, Italian

• Cc1nn(-c2ccc(C(F)(F)F)cc2)nc1Cc1ccnc(C(F)(F)F)c1 = 85
• Cc1nn(-c2ccc(F)cc2)nc1Cc1ccnc(C(F)(F)F)c1 = 20
• Cc1nn(-c2ccc(C(F)(F)F)c(F)c2)nc1Cc1ccnc(C(F)(F)F)c1 = 80
• Fc1ccc(-n2nc(Cc3ccnc(C(F)(F)F)c3)c(OCC(F)(F)F)n2)cc1 = 50
• CCc1nn(-c2ccc(F)cc2)nc1Oc1ccnc(C(F)(F)F)c1 = 25

====

Below, each entry is listed alongside its reported Plant response rating, Sedge, Umbrella.
Test system: sedge, umbrella (small-flower umbrella sedge, Cyperus difformis)
Protocol notes: Test C flooded paddy test: sedge, umbrella
Assay type: in vivo
Condition details: Flood (flooded paddy test), 62 g ai/ha; visual rating after 13 to 15 days, scale 0 to 100 (0 no effect, 100 complete control)
Source text: Plant species in the flooded paddy test consisted of rice (Oryza sativa), sedge, umbrella (small-flower umbrella sedge, Cyperus difformis), ducksalad (Heteranthera limosa) and barnyardgrass (Echinochloa crus-galli) grown to the 2-leaf stage for testing. […] Treated plants and controls were maintained in a greenhouse for 13 to 15 days, after which time all species were compared to controls and visually evaluated. […]
Endpoint: Plant response rating, Sedge, Umbrella

• Cc1nn(-c2cccc(C(F)(F)F)c2)nc1Oc1cccc(C(F)(F)F)c1 = 0
• Cc1nn(-c2ccc([N+](=O)[O-])cc2)nc1C(=O)c1cccc(C(F)(F)F)c1 = 0
• Cc1nn(-c2ccc(F)cc2)nc1Cn1ccc(C(F)(F)F)n1 = 0
• Cc1nn(-c2ccccc2[N+](=O)[O-])nc1C(=O)c1cccc(C(F)(F)F)c1 = 0
• Cc1nn(-c2ccc(C(F)(F)F)cc2)nc1Cn1ccc(C(F)(F)C(F)(F)F)n1 = 50
• COc1nn(-c2ccc(C(F)(F)F)cc2)nc1C(=O)c1ccnc(C(F)(F)F)c1 = 0
• Cc1nn(-c2ccc(F)cc2)nc1Oc1ccnc(OCC(F)(F)F)c1 = 0
• Cc1nn(-c2ccc(Cl)cc2)nc1Oc1ccnc(C(F)(F)F)c1 = 65
• Cc1nn(-c2ccc(C(F)(F)F)cn2)nc1Cn1nc(C(F)(F)F)cc1C = 0

====

System: wheat (Triticum aestivum)
Protocol notes: Test A pre-/postemergence: wheat
Type: in vivo
Condition details: Postemergence, 125 g ai/ha; 0 to 100 scale, 0 is no effect, 100 is complete control
Below, each entry is listed alongside its reported Plant response rating, Wheat.
Endpoint: Plant response rating, Wheat

* CCCc1nn(-c2ccc(F)cc2)nc1Cc1cccc(C(F)(F)F)c1 [Compound 149] | 20
* Cc1nn(-c2ccnc(C(F)(F)F)c2)nc1Cc1ccnc(C(F)(F)F)c1 [Compound 137] | 20
* O=C(c1ccnc(C(F)(F)F)c1)c1nn(-c2ccc(F)cc2)nc1F [Compound 158] | 0
* CC(C)c1nn(-c2ccc(F)cc2)nc1Cc1ccnc(C(F)(F)F)c1 [Compound 151] | 0
* CC(C)Cc1nn(-c2ccc(C(F)(F)F)cc2)nc1Oc1ccnc(C(F)F)c1 [Compound 187] | 0

====

System: winter wheat (Triticum aestivum)
Protocol notes: Test C pre-/postemergence: winter wheat
Assay type: in vivo
Condition details: Postemergence, 31 g ai/ha; scale 0 to 100 (0 no effect, 100 complete control)
Below, each entry is listed alongside its reported Plant response rating, Wheat.
Endpoint: Plant response rating, Wheat

* CCCc1nn(-c2ccc(C(F)(F)F)c(F)c2)nc1Oc1ccnc(C(F)(F)F)c1 | 5
* Cc1nn(-c2ccc(F)c(F)c2)nc1Oc1ccnc(C(F)(F)F)c1 | 5
* Cc1nn(-c2ccc(C(F)(F)F)c(F)c2)nc1Cc1ccnc(C(F)(F)F)c1 | 20
* Fc1ccc(-n2nc(Cc3ccnc(C(F)(F)F)c3)c(OCC(F)(F)F)n2)cc1 | 15
* Cc1nn(-c2ccnc(C(F)(F)F)c2)nc1Cc1ccnc(C(F)(F)F)c1 | 10
* CCOc1nn(-c2ccc(F)cc2)nc1Cc1ccnc(C(F)F)c1 | 10

====

Below, each entry is listed alongside its reported Plant response rating, Crabgrass, Large.
System: crabgrass, large (large crabgrass, Digitaria sanguinalis)
Protocol notes: Test A pre-/postemergence: crabgrass, large
Assay type: in vivo
Condition details: Preemergence, 500 g ai/ha; 0 to 100 scale (0 no effect, 100 complete control)
Endpoint: Plant response rating, Crabgrass, Large

• CCc1nn(-c2ccc(F)cc2)nc1Oc1ccnc(C(F)(F)F)c1 [Compound 166] = 100
• Cc1nn(-c2ccc(C(F)(F)F)cn2)nc1C(=NO)c1cccc(C(F)(F)F)c1 [Compound 201] = 20
• Cc1nn(-c2ccc(F)cc2)nc1Oc1cc(C(F)(F)F)ccn1 [Compound 128] = 20
• Fc1ccc(-n2nc(F)c(Cc3ccnc(C(F)(F)F)c3)n2)cc1 [Compound 159] = 30
• CCCc1nn(-c2ccc(F)cc2)nc1Cc1cccc(C(F)(F)F)c1 [Compound 149] = 100
• CCCc1nn(-c2ccc(C(F)(F)F)c(F)c2)nc1Oc1ccnc(C(F)(F)F)c1 [Compound 185] = 100
• CC(C)(C)c1nn(-c2ccc(F)cc2)nc1C(=O)c1ccnc(C(F)(F)F)c1 [Compound 175] = 0
• COc1nn(-c2ccc(F)cc2F)nc1Cc1ccnc(C(F)(F)F)c1 [Compound 165] = 100
• Cc1nn(-c2ccc(F)c(F)c2)nc1Oc1ccnc(C(F)(F)F)c1 [Compound 145] = 100

// provenance: patent US9302999B2
